- study.target: Renin (Macaca fascicularis, UniProt Q6DLS0)
- Sequence (Q6DLS0 whole entry): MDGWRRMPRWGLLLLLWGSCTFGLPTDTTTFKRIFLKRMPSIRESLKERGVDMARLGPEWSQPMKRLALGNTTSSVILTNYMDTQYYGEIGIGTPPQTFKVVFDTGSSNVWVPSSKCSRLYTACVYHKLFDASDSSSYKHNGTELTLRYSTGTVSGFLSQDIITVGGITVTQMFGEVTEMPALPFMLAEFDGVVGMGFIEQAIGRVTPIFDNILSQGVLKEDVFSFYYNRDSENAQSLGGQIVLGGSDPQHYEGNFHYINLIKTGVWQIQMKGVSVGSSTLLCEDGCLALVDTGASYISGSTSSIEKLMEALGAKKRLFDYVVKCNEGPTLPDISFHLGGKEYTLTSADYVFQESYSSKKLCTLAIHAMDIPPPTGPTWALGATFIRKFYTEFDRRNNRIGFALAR
- test.summary: Inhibition of renin in cynomolgus monkey plasma after 1 hr by RIA

smiles.str: CC[C@H](C[C@H](O)[C@@H](N)CN1CC(=O)N(c2ccccc2Cl)CC1(C)C)C(=O)Nc1cc(OC)ccn1
study.target: Renin (Macaca fascicularis, UniProt Q6DLS0)
unit.of.measurement: nM
IC50: 33

smiles.str: Cc1ccc(F)cc1N1CC(C)(C)N(C[C@H](N)[C@@H](O)C[C@@H](C)C(=O)NCC(C)(C)C)CC1=O.O=C(O)/C=C/C(=O)O
study.target: Renin (Macaca fascicularis, UniProt Q6DLS0)
unit.of.measurement: nM
IC50: 3.4

smiles.str: CC(C)[C@H](C[C@H](O)[C@@H](N)CN1CC(=O)N(c2ccccc2Cl)CC1(C)C)C(=O)Nc1ccc(F)cc1F.O=C(O)/C=C/C(=O)O
study.target: Renin (Macaca fascicularis, UniProt Q6DLS0)
unit.of.measurement: nM
IC50: 14

smiles.str: CC(C)[C@H](C[C@H](O)[C@@H](N)CN1CC(=O)N(c2ccccc2Cl)CC1(C)C)C(=O)Nc1ncc(F)cc1F.O=C(O)/C=C/C(=O)O
study.target: Renin (Macaca fascicularis, UniProt Q6DLS0)
unit.of.measurement: nM
IC50: 3.3

====

- study.target: Renin (Homo sapiens)
- test.summary: Inhibition of human recombinant renin using Arg-Glu(EDANS)-Ile-His-Pro-Phe-His-Leu-Val-Ile-His-Thr-Lys (DABCYL)-Arg as substrate incubated for 10 mins prior to substrate addition measured after 90 mins by fluorescence assay
pIC50: −log10 of the molar value.
Here the recorded pIC50 is given for each entry.

smiles.str: CC(C)[C@H](C[C@H](O)[C@@H](N)CN1CC(=O)N(c2ccccc2Cl)CC1(C)C)C(=O)NC12CC3CC(CC(O)(C3)C1)C2.O=C(O)/C=C/C(=O)O
pIC50: 8.70
//
smiles.str: CC(C)[C@H](C[C@H](O)[C@@H](N)CN1CC(=O)N(c2ccccc2Cl)CC1(C)C)C(=O)Nc1cccnc1
pIC50: 8.68
//
smiles.str: CC(C)[C@H](C[C@H](O)[C@@H](N)CN1CC(=O)N(c2cc(F)ccc2Cl)CC1(C)C)C(=O)N[C@H]1C2CC3CC1C[C@](O)(C3)C2.O=C(O)/C=C/C(=O)O
pIC50: 8.72
//
smiles.str: CC(C)CNC(=O)C(C)(C)C[C@H](O)[C@@H](N)CN1CC(=O)N(c2cc(F)ccc2Cl)CC1(C)C.O=C(O)/C=C/C(=O)O
pIC50: 7.01
//
smiles.str: CC[C@H](C[C@H](O)[C@@H](N)CN1CC(=O)N(c2ccccc2Cl)CC1(C)C)C(=O)Nc1ccc(F)cc1.O=C(O)/C=C/C(=O)O
pIC50: 8.80
//
smiles.str: CC[C@H](C[C@H](O)[C@@H](N)CN1CC(=O)N(c2ccccc2Cl)CC1(C)C)C(=O)NCC1(CO)CCCC1.O=C(O)/C=C/C(=O)O
pIC50: 8.96

====

- test.summary: Plasma concentration cynomolgus monkey at 1000 mg/kg, po after 4 hrs
- Type: ADME, organism-based, Macaca fascicularis
- Set-up: dose 1000 mg/kg, route oral

smiles.str: CC[C@H](C[C@H](O)[C@@H](N)CN1CC(=O)N(c2ccccc2Cl)CC1(C)C)C(=O)N[C@H]1C2CC3CC1C[C@](O)(C3)C2.O=C(O)/C=C/C(=O)O
concentration at 4 h, µg/mL: 5.4

====

Here the recorded IC50 is given for each entry.
- study.target: Renin (Homo sapiens, UniProt P00797)
- Sequence (P00797 whole entry): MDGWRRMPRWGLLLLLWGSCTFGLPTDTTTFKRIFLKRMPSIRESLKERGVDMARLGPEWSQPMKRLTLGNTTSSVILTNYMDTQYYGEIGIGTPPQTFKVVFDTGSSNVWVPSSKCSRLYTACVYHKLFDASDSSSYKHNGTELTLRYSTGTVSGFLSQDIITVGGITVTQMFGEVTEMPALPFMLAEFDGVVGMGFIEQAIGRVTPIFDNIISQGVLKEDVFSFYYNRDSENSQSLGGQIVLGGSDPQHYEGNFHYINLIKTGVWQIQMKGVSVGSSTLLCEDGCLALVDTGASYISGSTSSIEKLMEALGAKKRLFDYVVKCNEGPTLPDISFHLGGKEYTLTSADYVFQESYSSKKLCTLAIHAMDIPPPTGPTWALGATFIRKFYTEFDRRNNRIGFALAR
- test.summary: Inhibition of human recombinant renin using Arg-Glu(EDANS)-Ile-His-Pro-Phe-His-Leu-Val-Ile-His-Thr-Lys (DABCYL)-Arg as substrate incubated for 10 mins prior to substrate addition measured after 90 mins by fluorescence assay
measured.attribute: IC50 (nM)

smiles.str: CC(C)[C@H](C[C@H](O)[C@@H](N)CN1CC(=O)N(c2ccccc2Cl)CC1(C)C)C(=O)NCC(C)(C)CO.O=C(O)/C=C/C(=O)O
measured.result: 1.7
--
smiles.str: CC(C)[C@H](C[C@H](O)[C@@H](N)CN1CC(=O)N(c2ccccc2Cl)CC1(C)C)C(=O)Nc1ccc(F)cc1.O=C(O)/C=C/C(=O)O
measured.result: 1.4
--
smiles.str: COC(=O)C(C)(C)CNC(=O)[C@@H](C[C@H](O)[C@@H](N)CN1CC(=O)N(c2ccccc2Cl)CC1(C)C)C(C)C.O=C(O)/C=C/C(=O)O
measured.result: 1.8
--
smiles.str: Cc1cccc(NC(=O)[C@@H](C[C@H](O)[C@@H](N)CN2CC(=O)N(c3ccccc3Cl)CC2(C)C)C(C)C)n1.O=C(O)/C=C/C(=O)O
measured.result: 5.6
--
smiles.str: CC[C@H](C[C@H](O)[C@@H](N)CN1CC(=O)N(c2ccccc2Cl)CC1(C)C)C(=O)NCC(C)(C)C.O=C(O)/C=C/C(=O)O
measured.result: 0.8
--
smiles.str: CC(C)[C@H](C[C@H](O)[C@@H](N)CN1CC(=O)N(c2ccccc2Cl)CC1(C)C)C(=O)Nc1ccc(F)cc1F.O=C(O)/C=C/C(=O)O
measured.result: 2
--
smiles.str: CC(C)[C@H](C[C@H](O)[C@@H](N)CN1CC(=O)N(c2ccccc2Cl)CC1(C)C)C(=O)Nc1ccccc1.O=C(O)/C=C/C(=O)O
measured.result: 1.4
--
smiles.str: CC(C)[C@H](C[C@H](O)[C@@H](N)CN1CC(=O)N(c2ccccc2Cl)CC1(C)C)C(=O)Nc1ccncc1.O=C(O)/C=C/C(=O)O
measured.result: 1.6
--
smiles.str: CC[C@H](C[C@H](O)[C@@H](N)CN1CC(=O)N(c2ccccc2Cl)CC1(C)C)C(=O)NCC1(CO)CCCCC1.O=C(O)/C=C/C(=O)O
measured.result: 1.1
--
smiles.str: CC[C@H](C[C@H](O)[C@@H](N)CN1CC(=O)N(c2ccccc2Cl)CC1(C)C)C(=O)N[C@H]1C2CC3CC1C[C@@](O)(C3)C2.O=C(O)/C=C/C(=O)O
measured.result: 1.1
--
smiles.str: CC[C@H](C[C@H](O)[C@@H](N)CN1CC(=O)N(c2ccccc2Cl)CC1(C)C)C(=O)N[C@H]1C2CC3CC1C[C@](O)(C3)C2.O=C(O)/C=C/C(=O)O
measured.result: 0.9
--
smiles.str: C[C@H](C[C@H](O)[C@@H](N)CN1CC(=O)N(c2ccccc2Cl)CC1(C)C)C(=O)N[C@H]1C2CC3CC1C[C@](O)(C3)C2.O=C(O)/C=C/C(=O)O
measured.result: 1.1
--
smiles.str: CC(C)CNC(=O)[C@@H](C[C@H](O)[C@@H](N)CN1CC(=O)N(c2ccccc2Cl)CC1(C)C)C(C)C.O=C(O)/C=C/C(=O)O
measured.result: 1.4

====

- Test system: Rattus norvegicus
- test.summary: Cardiotoxicity in Sprague-Dawley rat electrophysiology model assessed as QRS complex abnormalities at 10 mg/kg, iv by ECG analysis
- Type: toxicity, organism-based
- Parameters: dose 10 mg/kg, route intravenous
- condition.context: in vivo

smiles.str: CC(C)[C@H](C[C@H](O)[C@@H](N)CN1CC(=O)N(c2ccccc2Cl)CC1(C)C)C(=O)Nc1ncc(F)cc1F.O=C(O)/C=C/C(=O)O
Activity: Toxic
--
smiles.str: CC(C)[C@H](C[C@H](O)[C@@H](N)CN1CC(=O)N(c2ccccc2Cl)CC1(C)C)C(=O)Nc1ccc(F)cn1.O=C(O)/C=C/C(=O)O
Activity: Toxic

====

- study.target: Renin (Macaca fascicularis)
- test.summary: Inhibition of renin in cynomolgus monkey plasma after 1 hr by RIA
Here the recorded IC50 is given for each entry.

smiles.str: CC(C)[C@H](C[C@H](O)[C@@H](N)CN1CC(=O)N(c2ccccc2Cl)CC1(C)C)C(=O)Nc1ccccc1.O=C(O)/C=C/C(=O)O
IC50: 9.2 nM

smiles.str: CC[C@H](C[C@H](O)[C@@H](N)CN1CC(=O)N(c2ccccc2Cl)CC1(C)C)C(=O)NCC(C)(C)C.O=C(O)/C=C/C(=O)O
IC50: 2.3 nM

smiles.str: CC(C)[C@H](C[C@H](O)[C@@H](N)CN1CC(=O)N(c2ccccc2Cl)CC1(C)C)C(=O)Nc1cccnc1
IC50: 19 nM

smiles.str: CC(C)CNC(=O)C(C)(C)C[C@H](O)[C@@H](N)CN1CC(=O)N(c2cc(F)ccc2Cl)CC1(C)C.O=C(O)/C=C/C(=O)O
IC50: 738 nM

smiles.str: CC(C)[C@H](C[C@H](O)[C@@H](N)CN1CC(=O)N(c2ccccc2Cl)CC1(C)C)C(=O)NCC(C)(C)O.O=C(O)/C=C/C(=O)O
IC50: 15 nM

smiles.str: C[C@H](C[C@H](O)[C@@H](N)CN1CC(=O)N(c2ccccc2Cl)CC1(C)C)C(=O)N[C@H]1C2CC3CC1C[C@](O)(C3)C2.O=C(O)/C=C/C(=O)O
IC50: 7.3 nM

smiles.str: C[C@H](C[C@H](O)[C@@H](N)CN1CC(=O)N(c2ccccc2Cl)CC1(C)C)C(=O)NCC(C)(C)C
IC50: 2.1 nM

smiles.str: CC[C@H](C[C@H](O)[C@@H](N)CN1CC(=O)N(c2ccccc2Cl)CC1(C)C)C(=O)Nc1ccc(OC)cc1.O=C(O)/C=C/C(=O)O
IC50: 11 nM

smiles.str: CC[C@H](C[C@H](O)[C@@H](N)CN1CC(=O)N(c2ccccc2Cl)CC1(C)C)C(=O)Nc1ncccc1C.O=C(O)/C=C/C(=O)O
IC50: 15 nM

smiles.str: CC[C@H](C[C@H](O)[C@@H](N)CN1CC(=O)N(c2ccccc2Cl)CC1(C)C)C(=O)N[C@H]1C2CC3CC1C[C@](O)(C3)C2.O=C(O)/C=C/C(=O)O
IC50: 6.3 nM

smiles.str: CC(C)[C@H](C[C@H](O)[C@@H](N)CN1CC(=O)N(c2ccccc2Cl)CC1(C)C)C(=O)Nc1ccccn1.O=C(O)/C=C/C(=O)O
IC50: 3.4 nM

smiles.str: CC[C@H](C[C@H](O)[C@@H](N)CN1CC(=O)N(c2ccccc2Cl)CC1(C)C)C(=O)NCC1(CO)CCCC1.O=C(O)/C=C/C(=O)O
IC50: 3 nM

smiles.str: CC[C@H](C[C@H](O)[C@@H](N)CN1CC(=O)N(c2cc(F)ccc2Cl)CC1(C)C)C(=O)N[C@H]1C2CC3CC1C[C@](O)(C3)C2.O=C(O)/C=C/C(=O)O
IC50: 3.6 nM
